DC50: recorded values
- TARGET OR SYSTEM: KRAS (G12D) (Homo sapiens, UniProt P01116, G12D)
- Construct: in-cell western with KRAS G12D antibody after 24 h
- Sequence (P01116 1-188 isoform P01116-2 G12D): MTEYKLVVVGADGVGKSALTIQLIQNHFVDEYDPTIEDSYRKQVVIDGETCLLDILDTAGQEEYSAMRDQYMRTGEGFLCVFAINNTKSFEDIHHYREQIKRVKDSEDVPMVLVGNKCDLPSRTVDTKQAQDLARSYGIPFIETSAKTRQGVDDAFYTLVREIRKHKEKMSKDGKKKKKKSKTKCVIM
- PROTOCOL DESCRIPTION: KRAS (G12D) cellular degradation assay in AsPC-1 cells
- Assay type: cell-based
- SETUP CONDITIONS: 24 hours, antibody fluorescence (Odyssey CLX), DC50 half-maximal degradation concentration

Example entries and their recorded answers appear below.
compound_structure_string=CCn1nccc1-c1ccc([C@@H](NC(=O)[C@@H]2C[C@@H](O)CN2C(=O)[C@H](C(C)C)n2cc(-c3ccc(COc4c(-c5c(C)c(F)c(F)c6[nH]ncc56)c(C5CC5)cc5c(N(C)[C@H]6CCNC6)nc(OC[C@H](C)OC)nc45)cc3)nn2)[C@H](C)O)cc1 recorded_value="10 to 100 nM"
compound_structure_string=Cc1ncsc1-c1ccc([C@H](CO)NC(=O)[C@@H]2C[C@@H](O)CN2C(=O)[C@H](C(C)C)n2cc(-c3ccc(COc4c(-c5c(C)c(F)cc6[nH]ncc56)c(C5CC5)cc5c(N6CCCNCC6)nc(OC[C@H]6CCCO6)nc45)cc3)nn2)cc1 recorded_value="< 10 nM"
compound_structure_string=CCn1nccc1-c1ccc([C@@H](NC(=O)[C@@H]2C[C@@H](O)CN2C(=O)[C@H](C(C)C)n2cc(-c3ccc(COc4c(-c5c(C)c(F)cc6[nH]ncc56)c(C5CC5)cc5c(N6CCNCC[C@H]6C)nc(OC[C@H](C)OC)nc45)cc3)nn2)[C@H](C)O)cc1 recorded_value="< 10 nM"

Ask: Assign DC50 to the following record: CCn1nccc1-c1ccc([C@H](CO)NC(=O)[C@@H]2C[C@@H](O)CN2C(=O)[C@H](C(C)C)n2cc(-c3ccc(COc4c(-c5c(C)c(F)cc6[nH]ncc56)c(C5CC5)cc5c(N(C)[C@H]6CCNC6)nc(O[C@H]6C[C@H](OC)C6)nc45)cc3)nn2)cc1
Reply: < 10 nM

---

- Test system: AsPC-1 cells
- PROTOCOL DESCRIPTION: AsPC-1 cell proliferation assay (CellTiter Glo)
- Type: cell-based
- SETUP CONDITIONS: Homo sapiens, ASPC1, 144 h, 6 days
Listing of recorded IC50 by entry.

Some solved entries appear below for comparison.
compound="CCn1nccc1-c1ccc([C@H](CO)NC(=O)[C@@H]2C[C@@H](O)CN2C(=O)[C@H](C(C)C)n2cc(-c3ccc(COc4c(-c5c(C)c(F)cc6[nH]ncc56)c(C5CC5)cc5c(N6C[C@@H]7C[C@H]6CN7)nc(OCC6COC7OCCC67)nc45)cc3)nn2)cc1 (some centres unmarked)" recorded_value="< 10 nM"
compound=CCn1nccc1-c1ccc([C@@H](NC(=O)[C@@H]2C[C@@H](O)CN2C(=O)[C@H](C(C)C)n2cc(-c3ccc(COc4c(-c5c(C)c(F)cc6[nH]ncc56)c(C5CC5)cc5c(N6C[C@@H]7C[C@H]6CN7)nc(OC[C@H](C)OC)nc45)cc3)nn2)[C@@H](O)C(C)C)cc1 recorded_value="< 10 nM"

Ask: Tell me measured IC50 for Cc1ncsc1-c1ccc([C@H](CO)NC(=O)[C@@H]2C[C@@H](O)CN2C(=O)[C@H](C(C)C)n2cc(-c3ccc(COc4c(-c5c(C)c(F)cc6[nH]ncc56)c(C5CC5)cc5c(N6C[C@@H]7C[C@H]6CN7)nc(OC6CCC7(CC6)COC7)nc45)cc3)nn2)cc1 please.
Reply: < 10 nM

Ask: Supply IC50 value. Item: CO[C@@H](C)COc1nc(N2C[C@@H]3C[C@H]2CN3)c2cc(C3CC3)c(-c3c(C)c(F)cc4[nH]ncc34)c(OCc3ccc(-c4cn([C@H](C(=O)N5C[C@H](O)C[C@H]5C(=O)N[C@H](C#Cc5cccc6ncsc56)CO)C(C)C)nn4)cc3)c2n1
Reply: < 10 nM
